cleaved RNA product abundance for assorted sequences
- System: Bacillus subtilis
- assay-procedure: cleaved RNA product abundance (RNA/gDNA barcode ratio) relative to median wild-type variant (ratio to wild type); higher = more accumulation of the downstream cleavage product
- settings: experiment (reporter, strain, medium): exp 8a: truncated aprE reporter, strain BJT201 with 2% xylose (RNase J1 expressed); cleavage site: glnRA (positions -5 to +31 mutated)
experimental-endpoint: cleaved RNA product abundance

* CGACATGTCCCGCTTCTTTCATTATTCCGTTAGCAATTGTTATGGTATATACAATTATCTTTTAAGAGGAGGAAT | 0.256
* CGACATGTCCCGCTTCTTTCATTAATCCGTTAGCAACTGTTTTGCCATATACACTTACCTTTTAAGAGGAGGAAT | 0.161
* CGACATGTCCCGCTTCTTTCATTAATCCTTTAGCAACTGTTTTGTTATATACATTTACCTTTTAAGAGGAGGAAT | 0.553
* CGACATGTCCCGCTTCTTTCATTAATCCGTTGGCAACTGTTTTGCTATGTACATTTACCTTTTAAGAGGAGGAAT | 0.1
* CGACATGTCCCGCTTCTTTCATTAATCCGTTTGCAACTCTTTTGCTATATACATTTACCTTTTAAGAGGAGGAAT | 0.483
* CGACATGTCCCGCTTCTTTCATTACTCCGTTAGCAACTGTTTTGCTATACACATTTACCTTTTAAGAGGAGGAAT | 0.423
* CGACATGTCCCGCTTCTTTCATTAATCCGTTAGCAACTATTTTGCAATATACATTTACCTTTTAAGAGGAGGAAT | 0.531

====

cleaved RNA product abundance for assorted sequences
- Tested on: Bacillus subtilis
- assay-procedure: cleaved RNA product abundance (RNA/gDNA barcode ratio) relative to median wild-type variant (ratio to wild type); higher = more accumulation of the downstream cleavage product
- settings: experiment (reporter, strain, medium): exp 2b: truncated aprE reporter, strain BJT200; cleavage site: cggR-gapA (positions -7 to +36 mutated)
experimental-endpoint: cleaved RNA product abundance

- ACAGACGAAGGAGCCGCAAAGAAGTTTTTAAGGGAAGAATAATCCCTCAATATAAATATCTCTCACTTATTTAAA: 0.128
- ACAGACGAAGGAGCCGCAAACAAGTTATTAAGAGATGAATAATCACTCAATATAAATATCTCTCACTTATTTAAA: 0.106
- ACAGACGAAGGAGCCGCAAAGAAGTGATTAAGGGTTGAATAATCCCTCAATATAAATATCTCTCACTTATTTAAA: 0.15
- ACAGACGAAGGAGCCGCAAATAAGTTATTAAGGGATGAATCATCCCTCAATATAAATATCTCTCACTTATTTAAA: 0.769

====

- Test system: Bacillus subtilis
- assay-procedure: cleaved RNA product abundance (RNA/gDNA barcode ratio) relative to median wild-type variant (ratio to wild type); higher = more accumulation of the downstream cleavage product
- settings: experiment (reporter, strain, medium): exp 2b: truncated aprE reporter, strain BJT200; cleavage site: cggR-gapA (positions -7 to +36 mutated)
The following ranges of cleaved RNA product abundance define the classes used here: bin A (below 0.1), bin B (0.1 to below 0.2), bin C (0.2 or more)

• ACAGACGAAGGAGCCGCAAAGAAGTTATTAAGGGACGAATAATCCCTCAATATATATATCTCTCACTTATTTAAA = bin C
• ACAGACGAAGGAGCCGCAAAGAAGATATTAAGGCATGAATAATCCCTCAATATAAATATCTCTCACTTATTTAAA = bin A
• ACAGACGAAGGAGCCGCAAAGAAGTTATTAATGGATGAATAATTCCTCAATATAAATATCTCTCACTTATTTAAA = bin A
• ACAGACGAAGGAGCCGCAAAGAAGTTACTAAGGGATGAATAATCCCTCAATATAAATATCTCTCACTTATTTAAA = bin C
• ACAGACGAAGGAGCCGCAAAGAAGTTATTAAGAGATCAATAATCCCTCAATATAAATATCTCTCACTTATTTAAA = bin A
• ACAGACGAAGGAGCCGCAAAGAAGTTATTAAGGGAAGAATAATCCCTCACTATAAATATCTCTCACTTATTTAAA = bin B
• ACAGACGAAGGAGCCGCAAAGAAGTTATTAAGGTATGTATAATCCCTCAATATAAATATCTCTCACTTATTTAAA = bin B
• ACAGACGAAGGAGCCGCAAAGAACTTATTAAGGGATGAATAACCCCTCAATATAAATATCTCTCACTTATTTAAA = bin C
• ACAGACGAAGGAGCCGCAAAGAAGTTATTAAGGAATCAATAATCCCTCAATATAAATATCTCTCACTTATTTAAA = bin A
• ACAGACGAAGGAGCCGCAAAGAAGTTATTAAGGGATGAATAATCCTTCCATATAAATATCTCTCACTTATTTAAA = bin B
• ACAGACGAAGGAGCCGCAAAGAAGTTATTAAGTGATGAATAATCCCTCAATATATATATCTCTCACTTATTTAAA = bin B
• ACAGACGAAGGAGCCGCAAAGAAGTTATTAAGGGGTGAATAATCCCTCAATATAAATATCTCTCACTTATTTAAA = bin C
• ACAGACGAAGGAGCCGCAAAGAAGTTATTAAGGTATGAATAATCCCTCAATATAAAAATCTCTCACTTATTTAAA = bin B
• ACAGACGAAGGAGCCGCAAGGAAGTTATCAAGGGATGAATAATCCCTCAATATAAATATCTCTCACTTATTTAAA = bin C
• ACAGACGAAGGAGCCGCAAAAAAGTTATTAAGGGATGAATAGTCCCTCAATATAAATATCTCTCACTTATTTAAA = bin C
• ACAGACGAAGGAGCCGCAAAGAAGTTATTAAGGGATGAATAATCCCTCAATTTAAATATCTCTCACTTATTTAAA = bin B
• ACAGACGAAGGAGCCGCAAAGAAGTTATTAAGGGATGAATAATCCCTCTGTATAAATATCTCTCACTTATTTAAA = bin B
• ACAGACGAAGGAGCCGCAAAAAAGTTATAAAGAGATGAATAATCCCTCAATATAAATATCTCTCACTTATTTAAA = bin B
• ACAGACGAAGGAGCCGCAAAGAAGTTATTAAGGAATGAATAATCCCTCAAAATAAATATCTCTCACTTATTTAAA = bin A
• ACAGACGAAGGAGCCGCAAAGAAGTTATTAAGGCATGAATAATCCCTCAATATAATTATCTCTCACTTATTTAAA = bin A
• ACAGACGAAGGAGCCGCAAAGAAGTTGTTAAGGGATAAATAATCCCTCAATATAAATATCTCTCACTTATTTAAA = bin C
• ACAGACGAAGGAGCCGCAAAGAAGTTATAAAGGGATGAATAATCCGTCAATATAAATATCTCTCACTTATTTAAA = bin B
• ACAGACGAAGGAGCCGCAAAGAAATAATTAAGGGATGAATAATCCCTCAATATAAATATCTCTCACTTATTTAAA = bin C
• ACAGACGAAGGAGCCGCAAATAAGTTATTAAGGGATGAATAATCCCTCTATATAAATATCTCTCACTTATTTAAA = bin C
• ACAGACGAAGGAGCCGCAAAGAAGTTATTAACGGATTAATAATCCCTCAATATAAATATCTCTCACTTATTTAAA = bin B
• ACAGACGAAGGAGCCGCAAAGAAGTTATTAACGGATGAATAATCCCTCAATATTAATATCTCTCACTTATTTAAA = bin A
• ACAGACGAAGGAGCCGCAAAGAAGTTATTAAGGGATGAAAAATCACTCAATATAAATATCTCTCACTTATTTAAA = bin B
• ACAGACGAAGGAGCCGCAAAGAAGTTATTAAGTGATGACTAATCCCTCAATATAAATATCTCTCACTTATTTAAA = bin A

====

cleaved RNA product abundance for assorted sequences
- Test system: Bacillus subtilis
- assay-procedure: cleaved RNA product abundance (RNA/gDNA barcode ratio) relative to median wild-type variant (ratio to wild type); higher = more accumulation of the downstream cleavage product
- settings: experiment (reporter, strain, medium): exp 4a: truncated aprE reporter, strain BJT201 with 2% xylose (RNase J1 expressed); cleavage site: cggR-gapA (positions -7 to +36 mutated)
experimental-endpoint: cleaved RNA product abundance

- ACAGACGAAGGAGCCGCAAAGAAGTTATTAAGGGTTGAATAATCCTTCAATATAAATATCTCTCACTTATTTAAA: 0.358
- ACAGACGAAGGAGCCGCAAAGAAGTTATTAAGGGATGATTAATACCTCAATATAAATATCTCTCACTTATTTAAA: 0.134
- ACAGACGAAGGAGCCGCTAAGAAGTTATTAAGGGATGAATAATCCTTCAATATAAATATCTCTCACTTATTTAAA: 0.597
- ACAGACGAAGGAGCCGCAAAGAAGTTATTAAGGGATGAATAATTCCTCTATATAAATATCTCTCACTTATTTAAA: 0.248
